Recorded Cmax, one value per entry.
test: Cmax in BALB/c mouse at 30 mg/kg, po; assay type: ADME, organism-based; design: dose 30 mg/kg, route oral; conditions: in vivo
Give your result in ng/mL as a bare value.

CC(C)c1ccc(-c2nc(CN3CCN(c4ccnc5cc(-c6cccnc6)ccc45)CC3)no2)cc1 7440
Cc1cccc(-c2nc(CN3CCN(c4ccnc5cc(-c6cccnc6)ccc45)CC3)no2)c1C 6410
CC(C)c1ccc(-c2nc(CN3CCN(c4ccnc5cc(Cl)ccc45)CC3)no2)cc1 2500

Then this compound:
Query :: For the compound c1cncc(-c2ccc3c(N4CCN(Cc5noc(C6CCCC6)n5)CC4)ccnc3c2)c1 , give its reported Cmax.
Result :: 9600
